# pEC50 listing for each entry below
test system: Naegleria fowleri; assay: Anti-ameobic activity against Naegleria fowleri Nf69 (ATCC 30215) trophozoites assessed as inhibition of amoeba growth incubated for 48 hrs by CellTiter-Glo assay; format: functional, organism-based; settings: Naegleria fowleri, Nf69 (ATCC 30215), 48 h
pEC50: −log10 of the molar value.
assay readout: pEC50

> print(dat)
                                   compound  assay.readout  result
1  COc1cc(Cl)cc2c(=O)n3c(nc12)[C@H]1CCCN(C)[C@@H]1CC3 (racemic)          pEC50  < 5.00
2  CN1CCC[C@H]2c3nc4cc(F)ccc4c(=O)n3CC[C@H]21 (racemic)          pEC50  < 5.00
3  COc1ccc2nc3n(c(=O)c2c1)CC[C@@H]1[C@H]3CCCN1C (racemic)          pEC50  < 5.00

Source of measurements: ChEMBL document CHEMBL5608261
